Hello, the source for this data is patent US20170002075A1, in case you need it.

- targetOrTestSystem: T1, hRAGE (1-331) / human sRAGE 1-331, V#400 (human, UniProt Q15109 23-331)
- T1 construct: also called sRAGE [RAGE (1-331)]; RAGE (antigen of the Biacore runs)
- T1 sequence (Q15109 23-331): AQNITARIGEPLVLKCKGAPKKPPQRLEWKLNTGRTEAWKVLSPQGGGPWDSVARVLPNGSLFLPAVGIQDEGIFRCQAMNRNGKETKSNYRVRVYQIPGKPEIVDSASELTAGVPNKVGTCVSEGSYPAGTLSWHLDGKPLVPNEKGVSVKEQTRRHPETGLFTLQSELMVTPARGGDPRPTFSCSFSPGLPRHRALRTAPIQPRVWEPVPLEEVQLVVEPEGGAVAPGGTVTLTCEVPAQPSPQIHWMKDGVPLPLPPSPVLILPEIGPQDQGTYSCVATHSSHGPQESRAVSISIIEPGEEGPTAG
- testSummary: competition ELISA on coated hRAGE (1-331); competitor biotinylated m11E6 at 0.3 µg/ml
Entries and their IC50
Number in nM, nothing else.

binder: humanized anti-RAGE antibody h11E6.3 (antibody, V domains shown, Full-length humanized antibody transiently produced in 293-6E cells) VH: EVQLVQSGSELKKPGASVKVSCKASGYTFTNFGMNWVRQAPGQGLEWMGYINTNTGESIYSEEFKGRFVFSLDTSVSTAYLQICSLKAEDTAVYYCARSRMVTAYGMDYWGQGTTVTVSS VL: EIVMTQSPATLSLSPGERATLSCKASQNVGTAVAWYQQKPGQAPRLLIYSASNRYTGIPARFSGSGSGTDFTLTISSLQSEDFAVYYCQQYSSYPLTFGQGTKLEIKR
unitSpec: nM
measuredResult: 18.8

Now look at this entry.
Indicate its recorded IC50; the binder in question is humanized anti-RAGE antibody h11E6.8 (antibody, V domains shown, Full-length humanized antibody transiently produced in 293-6E cells) VH: EIQLVQSGSELKKPGASVKVSCKASGYTFTNFGMNWVRQAPGQGLEWMGYINTNTGESIYSEEFKGRFVFSLDTSVSTAYLQICSLKAEDTAVYFCARSRMVTAYGMDYWGQGTTVTVSS VL: EIVMTQSPATLSLSPGERATLSCKASQNVGTAVAWYQQKPGQSPRLLIFSASNRYTGVPARFSGSGSGTDFTLTISSLQSEDFAVYFCQQYSSYPLTFGQGTKLEIKR
10.8
